Test: HL-60 cell viability by propidium iodide uptake (flow cytometry)
Conditions: human, hl-60 cells
ENDPOINT LABEL: viability at 4 µM (%)
Record the value in %, omitting the unit from your answer.

viability at 4 µM measured on "CC[C@H](C)C(=O)O[C@H]1CCC=C2C=C[C@H](C)[C@H](CC[C@@H]3C[C@@H](O)CC(=O)O3)[C@H]21" = 97

Source: patent US5244916A
